These data points were gathered from patent US10206394B2.

# pest or weed control at 250 g/ha per entry
- Test system: Lolium perenne (LOLPE)
- method-summary: Glasshouse assay for herbicidal activity (pre- and post-emergence), percentage phytotoxicity
- Assay type: in vivo
- condition-label: Lolium perenne, pre-emergence, 480 h, PRE-emergence, rate 250 g/ha, visual score 20 DAA (100%=total damage, 0%=no damage); read-out: Pre-emergence herbicidal activity (percentage phytotoxicity) LOLPE PRE

{"columns": ["compound", "assayed-target", "pest or weed control at 250 g/ha"],
 "data": [
  ["C/C=C/c1cc(C)c(C2C(=O)CC(CC(=O)NCc3cccc(Cl)c3)C2=O)c(C)c1 (stereo not drawn)", "Lolium perenne (LOLPE)", "80%"],
  ["CCNC(=O)CC1CC(=O)C(c2c(C)cc(-c3ccc(C#N)cn3)cc2C)C1=O (stereo not drawn)", "Lolium perenne (LOLPE)", "100%"],
  ["CCc1cc(OCC(F)(F)F)cc(C)c1C1C(=O)CC(CC(=O)NC(C)(C)C)C1=O (stereo not drawn)", "Lolium perenne (LOLPE)", "100%"],
  ["C#CCN(C)C(=O)CC1CC(=O)C(c2c(C)cc(/C=C/C)cc2CC)C1=O (stereo not drawn)", "Lolium perenne (LOLPE)", "100%"],
  ["CC#Cc1cc(C)c(C2C(=O)CC(CC(=O)NCc3cccc(F)c3)C2=O)c(C)c1 (stereo not drawn)", "Lolium perenne (LOLPE)", "100%"],
  ["C/C=C/c1cc(C)c(C2C(=O)CC(CC(=O)NC(C)(C)C)C2=O)c(C)c1 (stereo not drawn)", "Lolium perenne (LOLPE)", "90%"]
]}
